# Assayed Target: Motilin Receptor (Oryctolagus cuniculus, UniProt G1T803)
# Construct: The muscle tissue was homogenized in 10 volumes of 50 mM Tris-Cl; from tissue; host or cells: rabbit colon smooth muscle, crude membrane homogenate
# Sequence (G1T803 1-400): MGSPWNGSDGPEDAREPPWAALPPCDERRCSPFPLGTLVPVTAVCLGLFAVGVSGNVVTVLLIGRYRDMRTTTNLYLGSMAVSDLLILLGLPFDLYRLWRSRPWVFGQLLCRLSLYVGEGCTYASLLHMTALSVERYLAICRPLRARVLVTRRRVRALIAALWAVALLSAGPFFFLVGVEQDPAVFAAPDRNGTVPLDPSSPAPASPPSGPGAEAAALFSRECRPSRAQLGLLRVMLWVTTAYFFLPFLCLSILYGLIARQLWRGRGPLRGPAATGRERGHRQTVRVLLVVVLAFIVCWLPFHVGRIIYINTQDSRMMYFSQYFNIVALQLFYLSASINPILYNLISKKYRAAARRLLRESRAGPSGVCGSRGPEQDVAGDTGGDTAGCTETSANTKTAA
# Assay Explanation: Motilin receptor binding, rabbit colon membranes, 125I porcine motilin
# Design: dose or concentration left out as unconfirmed
# Conditions: rabbit colon membranes
// label = y if Rabbit Colon % Inh is not less than 20%, otherwise n

Field: example entries. Status: answers known.
# Compound, Assigned Label
rows = [
    ("O=C(CCCCN(C(=O)c1ccc(F)cc1)c1cccc(OCCN2CCOCC2)c1)N(CCc1ccccc1)Cc1ccccc1", "y"),
    ("CCN(Cc1ccc(C)cc1)C(=O)CCCN(C(=O)c1ccc(C)cc1)c1cccc(OCCN2CCOCC2)c1", "n"),
    ("CCN(Cc1ccccc1)C(=O)CCCCN(C(=O)c1ccc(F)cc1)c1cccc(OCCN2CCOCC2)c1", "y"),
    ("CN(Cc1ccccc1)C(=O)CCCN(C(=O)Nc1ccccc1)c1cccc(OCCN2CCOCC2)c1", "y"),
    ("O=C(Nc1ccccc1)N(CC1CCCC(N(Cc2ccc(Cl)cc2)C(=O)C(Cl)(Cl)Cl)C1)c1cccc(OCCN2CCOCC2)c1 (stereo not shown)", "y"),
    ("CN(Cc1ccccc1)C(=O)CCCN(C(=O)c1ccc(F)cc1)c1cccc(OCCN2CCOCC2)c1", "n"),
]

(Q) Has CCN(Cc1ccc(C)cc1)C(=O)CCCCN(C(=O)c1ccc(C)cc1)c1cccc(OCCN2CCOCC2)c1 a recorded Rabbit Colon % Inh greater than or equal to 20%?
(A) y
